Test system: ATP;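 also: ATP exposure 15 min at 22 °C before imaging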
ASSAY: switch fluorescence ratio, 500 uM ATP over buffer (Cy3 cluster intensity, sum of 5 cycles each) (fold (ratio)); higher = stronger signal-on switching upon ATP binding; sequences stand for … in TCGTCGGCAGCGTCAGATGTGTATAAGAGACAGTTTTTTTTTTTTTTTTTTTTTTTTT…TC
CONDITION: aptamer strand: ATP DNA aptamer (quencher-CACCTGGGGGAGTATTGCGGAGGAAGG + anchor), 100 nM annealed; ATP concentration: 500 uM
I'd appreciate it if you could supply switch fluorescence ratio values for the items below.
Answer with a bare number; do not write a unit.

Quick one: switch fluorescence ratio of `TCGCGTTTGC` ?
1.06

Look at this sequence and give its reported switch fluorescence ratio. `TAAGAGATAG`
0.976

I have this sequence here, `CGTAGAGGGG` , and I need its recorded switch fluorescence ratio.
0.986

GET /values?readout=switch fluorescence ratio&item= `TAGATGGGGT`
1.01

switch fluorescence ratio for `TTGGCGGCTT` ?
1.02

Look up switch fluorescence ratio: `TGGGATGGAA`
1

Returns the measured switch fluorescence ratio for the input sequence. Input: `CTGGCTGTCT`
1.02

What measured switch fluorescence ratio goes with `CTGGACAGTA` ?
1.01

Can you look up the measured switch fluorescence ratio of `GATCGAGGGG` for me?
1.05

I would be grateful if you could share the reported switch fluorescence ratio for `AAAGCTAGGA` .
0.979

Tell me the measured switch fluorescence ratio of `TTTACAAGGT` , please.
1.03

Quick check: switch fluorescence ratio of `CGTGGTTATG` ?
0.975

// query switch fluorescence ratio value for entry `GTTGTAGAGT`
1.03

Which switch fluorescence ratio value belongs to `CCGGTGTTTG` ?
0.987

Which switch fluorescence ratio is listed for `AAGGGGGGAT` ?
0.974

// query switch fluorescence ratio value for entry `TGGTGGGATC`
1.03

// switch fluorescence ratio lookup, key: `AAGGGTTGGG`
1.06

Could you tell me which switch fluorescence ratio is on file for `ACCATTGGGG` ?
0.993

Tell me the measured switch fluorescence ratio of `TTTGAGGTTT` , please.
1.01

What value of switch fluorescence ratio has been recorded for this entry: `CATTGTTTGA`
1.03

Endpoint output: switch fluorescence ratio of `TACATCGTGC` . Value?
0.992

Reported switch fluorescence ratio, sequence `GGGGTACCAC` : ____
1.31

What switch fluorescence ratio value was documented for this sequence, `CTACTGCCGT` ?
1.02

What measured switch fluorescence ratio goes with `GAACTCATGA` ?
0.982

I'd like to know its switch fluorescence ratio. The sequence in question is `TGCAGGGCGC`
1.04

For the sequence shown here, `GCTGGGCACG` , give the reported switch fluorescence ratio.
0.954

Give its switch fluorescence ratio value. Item: `GTTTTTATGA`
0.973

State the recorded switch fluorescence ratio for this entry: `TCGGATCATT`
0.978

// returns reported switch fluorescence ratio for input `ATGTTATGAA`
1.06

Reported switch fluorescence ratio, sequence `ATCAGGGTGC` : ____
1.06

What value of measured switch fluorescence ratio is listed for `GTCGGGAAGT` ?
0.958

Record request: switch fluorescence ratio value, item `TTCAATGGTG`
1.02

Consider the sequence `GTCTAAGGAA` and give its measured switch fluorescence ratio.
0.993

Any idea what its switch fluorescence ratio is? The sequence is `TTTTTGGTGT`
1.03

Query: switch fluorescence ratio; subject: `GATCTTCGGC`
0.954

Would you kindly share the measured switch fluorescence ratio for `GGGAAAAGTT` ?
1

Given `AACGTGTGTG` , state its recorded switch fluorescence ratio.
0.95

So what's the measured switch fluorescence ratio for this one? `GGAGTAATTT`
1.07

What does the data say about its switch fluorescence ratio? Entry: `GGGTTTTATA`
1.02

For the sequence shown here, `CGAATGGGGG` , give the reported switch fluorescence ratio.
1

Consider the sequence shown here: `CGGAGGAACG` What is its recorded switch fluorescence ratio?
1.01

Given `TAGTAGGGTT` , state its recorded switch fluorescence ratio.
0.986

Give its switch fluorescence ratio value. Item: `GCTGCTGTAT`
1.01

meta.source: the supplement of paper PMC10126150
